Data credit: paper PMC10591924

tested_system: HDAC2 (Homo sapiens, UniProt Q92769)
Sequence (Q92769 whole entry): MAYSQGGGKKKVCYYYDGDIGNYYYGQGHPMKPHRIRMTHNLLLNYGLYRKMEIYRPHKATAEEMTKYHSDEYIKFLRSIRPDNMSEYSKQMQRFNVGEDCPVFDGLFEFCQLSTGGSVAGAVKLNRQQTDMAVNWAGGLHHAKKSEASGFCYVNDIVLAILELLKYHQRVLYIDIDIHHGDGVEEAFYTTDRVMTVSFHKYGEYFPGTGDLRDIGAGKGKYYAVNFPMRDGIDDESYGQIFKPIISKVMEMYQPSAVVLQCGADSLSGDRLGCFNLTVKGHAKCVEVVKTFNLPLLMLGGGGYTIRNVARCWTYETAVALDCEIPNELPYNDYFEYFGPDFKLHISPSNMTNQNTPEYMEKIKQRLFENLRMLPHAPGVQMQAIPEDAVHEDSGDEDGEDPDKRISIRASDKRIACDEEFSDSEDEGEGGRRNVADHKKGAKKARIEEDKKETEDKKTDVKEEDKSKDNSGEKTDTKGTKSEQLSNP
measurement_notes: Preincubation HDAC inhibition assay, HDAC2
Type: biochemical
cond: preincubation 1 h at 25 °C
readout_type: HDAC2 percent inhibition at 10 μM

COc1ccc(CNc2ncc(-c3nnc(C(F)F)o3)cn2)cc1    no activity
CCCCN(Cc1ccc(-c2nnc(C(F)F)o2)cc1)C(=O)Nc1ccccc1    inactive
FC(F)c1nnc(-c2cnc(NCc3ccccc3)nc2)o1    no activity
CN(C)c1ccc(C(=O)N(CC(=O)NCc2ccccc2)Cc2ccc(-c3nnc(C(F)F)o3)cc2)cc1    inactive

# HDAC2 percent inhibition at 10 μM (compound: CCCCN(Cc1ccc(-c2nnc(C(F)F)o2)cc1)C(=O)c1ccccc1 ) is inactive

----------
tested_system: UniProt:P56524
Sequence (P56524 whole entry): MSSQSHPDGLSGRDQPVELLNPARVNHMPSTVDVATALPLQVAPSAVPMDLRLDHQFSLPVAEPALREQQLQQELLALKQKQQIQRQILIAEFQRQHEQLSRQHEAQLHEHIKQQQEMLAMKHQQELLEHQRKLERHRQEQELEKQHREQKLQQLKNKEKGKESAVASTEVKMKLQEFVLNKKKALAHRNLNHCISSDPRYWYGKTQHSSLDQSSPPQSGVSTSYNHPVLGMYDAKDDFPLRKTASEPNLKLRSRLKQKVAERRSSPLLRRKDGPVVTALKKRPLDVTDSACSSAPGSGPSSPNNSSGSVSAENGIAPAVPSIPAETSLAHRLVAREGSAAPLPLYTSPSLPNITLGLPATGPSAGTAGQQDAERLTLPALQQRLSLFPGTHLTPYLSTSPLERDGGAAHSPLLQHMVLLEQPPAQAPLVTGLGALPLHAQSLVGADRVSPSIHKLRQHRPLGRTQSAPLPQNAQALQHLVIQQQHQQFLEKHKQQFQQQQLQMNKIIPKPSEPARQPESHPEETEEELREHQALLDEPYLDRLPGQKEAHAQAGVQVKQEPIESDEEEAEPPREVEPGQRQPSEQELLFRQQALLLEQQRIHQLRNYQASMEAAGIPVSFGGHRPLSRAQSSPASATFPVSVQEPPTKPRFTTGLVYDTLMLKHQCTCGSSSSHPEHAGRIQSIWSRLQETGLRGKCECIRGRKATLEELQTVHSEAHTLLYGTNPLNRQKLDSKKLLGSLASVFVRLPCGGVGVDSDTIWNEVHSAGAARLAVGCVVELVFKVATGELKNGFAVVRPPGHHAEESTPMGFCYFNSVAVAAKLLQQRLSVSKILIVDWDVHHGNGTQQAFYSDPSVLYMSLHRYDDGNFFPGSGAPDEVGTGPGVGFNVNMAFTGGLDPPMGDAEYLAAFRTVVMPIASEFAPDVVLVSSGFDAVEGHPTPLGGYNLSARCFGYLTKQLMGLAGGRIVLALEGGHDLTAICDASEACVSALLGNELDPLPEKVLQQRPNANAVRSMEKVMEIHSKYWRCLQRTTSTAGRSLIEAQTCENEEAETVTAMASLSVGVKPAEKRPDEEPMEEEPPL
measurement_notes: Preincubation HDAC inhibition assay, HDAC4
Format: biochemical
cond: preincubation 1 h at 25 °C
readout_type: HDAC4 percent inhibition at 10 μM

COc1ccc(CNc2ncc(-c3nnc(C(F)F)o3)cn2)cc1 [Compound 7]    no activity
CCCCN(Cc1ccc(-c2nnc(C(F)F)o2)cc1)C(=O)c1ccccc1 [Compound 10]    inactive
CN(C)c1ccc(C(=O)N(CC(=O)NCc2ccccc2)Cc2ccc(-c3nnc(C(F)F)o3)cc2)cc1 [Compound 12]    inactive
CCCCN(Cc1ccc(-c2nnc(C(F)F)o2)cc1)C(=O)Nc1ccccc1 [Compound 9]    inactive

Turning now to a further compound:
The reported HDAC4 percent inhibition at 10 μM value, UniProt:P56524, for FC(F)c1nnc(-c2cnc(NCc3ccccc3)nc2)o1 [Compound 6] reads no activity

----------
tested_system: HDAC1 (Homo sapiens)
Sequence (Q13547 whole entry): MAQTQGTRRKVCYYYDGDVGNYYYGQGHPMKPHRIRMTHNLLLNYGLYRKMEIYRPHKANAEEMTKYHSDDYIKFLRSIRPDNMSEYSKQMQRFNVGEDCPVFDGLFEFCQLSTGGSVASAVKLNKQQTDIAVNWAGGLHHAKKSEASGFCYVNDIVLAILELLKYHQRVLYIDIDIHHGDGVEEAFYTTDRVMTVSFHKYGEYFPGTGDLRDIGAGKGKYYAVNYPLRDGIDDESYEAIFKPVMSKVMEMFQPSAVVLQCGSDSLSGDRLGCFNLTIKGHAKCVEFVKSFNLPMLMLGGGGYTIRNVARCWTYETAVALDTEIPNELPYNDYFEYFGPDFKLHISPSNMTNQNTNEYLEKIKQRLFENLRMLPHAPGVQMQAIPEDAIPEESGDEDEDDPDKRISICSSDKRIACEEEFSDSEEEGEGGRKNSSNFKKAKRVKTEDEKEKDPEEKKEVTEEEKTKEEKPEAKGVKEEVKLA
measurement_notes: Preincubation HDAC inhibition assay, HDAC1
Format: biochemical
cond: preincubation 1 h at 25 °C
readout_type: HDAC1 percent inhibition at 10 μM

Examples from the recorded data:
FC(F)c1nnc(-c2cnc(NCc3ccccc3)nc2)o1 [Compound 6]    no activity
CCCCN(Cc1ccc(-c2nnc(C(F)F)o2)cc1)C(=O)Nc1ccccc1 [Compound 9]    inactive
COc1ccc(CNc2ncc(-c3nnc(C(F)F)o3)cn2)cc1 [Compound 7]    no activity
CN(C)c1ccc(C(=O)N(CC(=O)NCc2ccccc2)Cc2ccc(-c3nnc(C(F)F)o3)cc2)cc1 [Compound 12]    inactive

Turning now to a further compound:
# HDAC1 percent inhibition at 10 μM (compound: CCCCN(Cc1ccc(-c2nnc(C(F)F)o2)cc1)C(=O)c1ccccc1 [Compound 10] ) is inactive
